# tested_on: T1, human CD8A-Fc (in house) (human, UniProt P01732 22-182, limits assumed)
# T1 construct: captured by goat anti-human Fc on the ProteOn chip; also called hCD8A-Fc; recombinant human CD8 alpha; not shown: linker/tag and Fc of human IgG1
# protocol_notes: SPR (ProteOn), captured hCD8A-Fc
reported_endpoint: koff (s⁻¹)

binder | koff, s⁻¹
P283FR9P1366_H7 (designed binder, FN3 domain) LPAPKNLVVSRVTEDSARLSWTAPDAAFDSFQIAYPEYPALGEAIVLTVPGSERSYDLTGLKPGTEYFVIIAGVKGGIQSWPLSAIFTT | 0.00177

[P] P283DR9P1364_D8 (designed binder, FN3 domain) LPAPKNLVVSRVTEDSARLSWTAPDAAFDSFQIAYPETPIQGEAIVLTVPGSERSYDLTGLKPGTEYFVIIHGVKGGITSFPLSAIFTT
[Q] P283DR9P1364_H1 (designed binder, FN3 domain) LPAPKNLVVSRVTEDSARLSWTAPDAAFDSFQISYPEWPVHGEAIVLTVPGSERSYDLTGLKPGTEYWVIIWGVKGGRQSWPLSAIFTT
[ask] Problem: Given the entries P and Q , determine which has the lower reported koff. Please reply using the label of the selected record.
[reply] Q
(Q: 0.000613 s⁻¹, P: 0.00661 s⁻¹)
